valueType: melting point

# compound, result
data = [
    ("Cn1cc(C2=C(c3c4n(c5ccccc35)CC(CCO)CC4)C(=O)NC2=O)c2ccccc21 (stereo unspecified)", "236 to 238 °C"),
    ("COC(=O)c1sc2ccc(C#N)cc2c1N", "248 °C"),
    ("Nc1cc(Cl)nc(C(=O)NOCc2ccc(F)cc2)c1Cl", "209 to 211 °C"),
    ("OC(c1ccccc1)c1cc2ccncc2[nH]1 (stereo unspecified)", "178 to 180 °C"),
    ("CC(C)COC1=C(Cc2ccc(Cl)cc2)C(=O)CC(C)(C)C1", "60 to 61 °C"),
]

Next item in the queue.
Q: Record request: melting point value, item "C=CCOc1ccc2c(C)c(F)c(=O)oc2c1C"
Ans: 117 °C
